Test system: Eotaxin-3 (CCL26) release in human whole blood stimulated with IL-4
Assay: Human whole blood eotaxin-3 assay (IL-4 stimulated, Eotaxin-3 release)
Type: cell-based
Conditions: Homo sapiens, Hec50, 48 h
EC50 overview
# output: bare number, implied unit nM

Example cases with answers are listed next.
Compound	EC50 / nM
[2H]C([2H])([2H])N(C(=O)c1cnc(C2=CCN(Cc3cc4c(-c5ccc(N)nc5)ccnc4n3C)CC2)nc1)C([2H])([2H])[2H] [Example 1af73]	46.3
[2H]C([2H])([2H])N(C(=O)c1ccc(C2=CCN([C@@H](C)c3cc4c(-c5ccc(N)c(F)n5)ccnc4n3C)CC2)cc1)C([2H])([2H])[2H] [Example 1af54]	534
[2H]C([2H])([2H])N(C(=O)c1ccc(C2=CCN([C@@H](C)c3cc4c(-c5cnc(N)c(C)c5)ccnc4n3C)CC2)cc1)C([2H])([2H])[2H] [Example 1af58]	638
CNc1ccc(-c2ccnc3c2cc(CN2CC[C@@H](c4ccc(C(=O)N(C)C)cc4)C[C@H]2C)n3C)nc1 [Example 1o26]	458
CN(C)C(=O)c1ccc(C2=CCN(Cc3cc4c(-c5ccc(N)nc5)ccnc4n3C)CC2)c(C#N)c1 [Example 1z10]	473

# next compound below
Summary for this compound, [2H]C([2H])([2H])N(C(=O)c1ccc(C2CCN([C@@H](C)c3cc4c(-c5ccc(N)nc5C#N)ccnc4n3C)CC2)c(C)c1)C([2H])([2H])[2H] [Example 1af37] : EC50 is 699

// provenance: patent US20250340551A1
